binding response of second antibody (nm) values for the binders below.
Biological target: T1, human GFRα3 expressed with a C-terminal myc-myc-hexahistidine tag (human, UniProt O60609 32-374, biotinylated (sites not given) in ELISA format 2 and in the Octet cross-competition; not in SPR)
T1 construct: also called hGFRα3-mmh; hGFRα3-mmH
T1 sequence (O60609 other isoform, or with tags, fused parts or gaps limits assumed): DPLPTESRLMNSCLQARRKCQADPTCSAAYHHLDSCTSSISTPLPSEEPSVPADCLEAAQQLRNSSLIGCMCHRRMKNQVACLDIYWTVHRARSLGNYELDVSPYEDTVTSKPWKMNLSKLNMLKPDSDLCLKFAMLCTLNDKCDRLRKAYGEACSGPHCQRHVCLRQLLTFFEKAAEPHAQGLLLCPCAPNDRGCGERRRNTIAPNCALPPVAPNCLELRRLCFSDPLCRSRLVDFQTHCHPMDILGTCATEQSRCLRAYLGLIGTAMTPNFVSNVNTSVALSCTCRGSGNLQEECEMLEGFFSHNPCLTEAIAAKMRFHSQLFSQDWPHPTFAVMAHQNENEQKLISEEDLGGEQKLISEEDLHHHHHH
Experiment: Octet cross-competition; biotin-hGFRα3-mmH pre-saturated with first antibody H4H2296S
Method: A cross-competition assay was conducted to assess the ability of select antibodies to compete with one another for binding to human GFRα3 using an Octet RED384 biosensor (Fortebio Inc.). […] The real-time binding response was monitored during the course of the experiment and the binding response at the end of every step was recorded as shown in FIG. 9. […]
Note to self: number, then unit, no commentary.

BINDER: H4H2236N3 (antibody, human IgG4, V domains shown, human IgG4 Fc (H4H)) VH: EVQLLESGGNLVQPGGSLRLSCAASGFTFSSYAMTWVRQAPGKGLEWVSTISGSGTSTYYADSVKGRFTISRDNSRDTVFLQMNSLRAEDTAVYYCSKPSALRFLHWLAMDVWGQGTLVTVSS VL: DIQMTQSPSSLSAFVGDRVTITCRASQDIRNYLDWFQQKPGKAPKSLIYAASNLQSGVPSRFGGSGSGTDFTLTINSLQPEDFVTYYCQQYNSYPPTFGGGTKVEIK
binding response of second antibody (nm): 0.07 nm

Query :: Give the value of binding response of second antibody (nm) reported for the following: H4H2357S (antibody, human IgG4, V domains shown, human IgG4 Fc (H4H)) VH: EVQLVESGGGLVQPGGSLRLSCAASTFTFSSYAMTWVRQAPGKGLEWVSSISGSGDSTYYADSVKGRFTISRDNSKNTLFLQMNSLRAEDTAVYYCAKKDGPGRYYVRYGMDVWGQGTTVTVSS VL: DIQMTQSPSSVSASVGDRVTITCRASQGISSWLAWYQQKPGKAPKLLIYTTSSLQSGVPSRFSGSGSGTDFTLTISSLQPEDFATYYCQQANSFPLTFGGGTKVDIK
Result :: 0.06 nm

Query :: Give the value of binding response of second antibody (nm) reported for the following: H4H2294S (antibody, human IgG4, V domains shown, human IgG4 Fc (H4H)) VH: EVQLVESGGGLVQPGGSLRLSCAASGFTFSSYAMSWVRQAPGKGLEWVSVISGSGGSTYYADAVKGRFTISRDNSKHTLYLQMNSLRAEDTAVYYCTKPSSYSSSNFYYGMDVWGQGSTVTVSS VL: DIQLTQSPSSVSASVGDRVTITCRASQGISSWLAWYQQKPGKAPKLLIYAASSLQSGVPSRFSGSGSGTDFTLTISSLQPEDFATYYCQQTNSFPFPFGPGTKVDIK
Result :: 0.04 nm

Query :: Give the value of binding response of second antibody (nm) reported for the following: H4H2243N2 (antibody, human IgG4, V domains shown, human IgG4 Fc (H4H)) VH: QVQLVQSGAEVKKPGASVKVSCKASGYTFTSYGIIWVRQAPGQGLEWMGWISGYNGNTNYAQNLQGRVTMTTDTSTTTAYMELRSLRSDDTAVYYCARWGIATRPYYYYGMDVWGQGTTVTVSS VL: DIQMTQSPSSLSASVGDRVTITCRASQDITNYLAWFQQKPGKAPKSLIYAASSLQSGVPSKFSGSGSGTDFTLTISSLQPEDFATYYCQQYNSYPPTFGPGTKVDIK
Result :: 0.06 nm

Query :: Give the value of binding response of second antibody (nm) reported for the following: H4H2291S (antibody, human IgG4, V domains shown, human IgG4 Fc (H4H)) VH: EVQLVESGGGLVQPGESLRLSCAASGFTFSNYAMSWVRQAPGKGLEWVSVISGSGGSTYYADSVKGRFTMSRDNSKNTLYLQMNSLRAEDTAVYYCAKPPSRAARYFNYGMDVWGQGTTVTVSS VL: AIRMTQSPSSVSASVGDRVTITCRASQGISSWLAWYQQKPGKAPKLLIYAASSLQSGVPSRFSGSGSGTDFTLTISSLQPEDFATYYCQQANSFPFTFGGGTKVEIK
Result :: 0.18 nm

Query :: Give the value of binding response of second antibody (nm) reported for the following: H4H2342P (antibody, human IgG4, V domains shown, human IgG4 Fc (H4H)) VH: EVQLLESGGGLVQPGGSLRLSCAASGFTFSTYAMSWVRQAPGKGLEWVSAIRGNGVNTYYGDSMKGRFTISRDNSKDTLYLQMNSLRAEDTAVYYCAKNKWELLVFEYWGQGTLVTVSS VL: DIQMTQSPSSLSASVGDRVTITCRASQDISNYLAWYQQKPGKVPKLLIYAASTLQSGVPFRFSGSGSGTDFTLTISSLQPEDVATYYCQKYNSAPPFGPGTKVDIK
Result :: 0.03 nm

Query :: Give the value of binding response of second antibody (nm) reported for the following: H4H2350P (antibody, human IgG4, V domains shown, human IgG4 Fc (H4H)) VH: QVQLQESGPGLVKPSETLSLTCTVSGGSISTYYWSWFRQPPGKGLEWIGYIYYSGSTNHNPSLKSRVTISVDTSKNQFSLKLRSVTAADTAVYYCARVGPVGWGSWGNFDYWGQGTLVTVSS VL: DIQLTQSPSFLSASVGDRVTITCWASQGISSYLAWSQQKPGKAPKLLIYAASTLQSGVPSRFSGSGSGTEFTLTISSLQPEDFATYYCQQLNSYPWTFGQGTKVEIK
Result :: 1.27 nm
